Recorded values, source PubChem BioAssay (NCI).

# System: BT-549 breast
# ASSAY_INFO: NCI-60 one-dose screen, 48 h (100 = growth as untreated, 0 = no growth, -100 = all killed)
# MEASUREMENT_CONTEXT: 10 µM unless noted
About 83,000 compounds went through this panel and 20% of them were active in at least one assay; those are over-represented in the sample as a whole.
Please map values of growth to classes as shown: low class: < 60%; middle class: ≥ 60% and < 90%; high class: ≥ 90%

Examples with answers:
CCCCNC(=O)c1ccc2c(c1)nc(-c1ccccc1)n2C1CCCCC1 = high class
CCOC(=O)C#Cc1c(C(=O)OCC)nnn1[C@@H]1O[C@H](COC)[C@@H](OC)[C@H]1OC = high class
COC(=O)/C=C1/SC(=NCc2ccccc2)N(CCc2c[nH]c3ccccc23)C1=O = middle class
COc1cc(C=C2C(=O)NC(=S)NC2=O)cc(CN2CCCC2)c1O = high class
O=C1/C(=C/c2cccc(Br)c2)COc2ccc(O)cc21 = low class

IN: Using the reported growth, which band applies to Cn1c(=O)c2[nH]c(SC/C(=N/O)c3ccc(Br)cc3)nc2n(C)c1=O ?
OUT: low class

IN: And CCOC(=O)c1c(NC(=O)c2ccccc2)sc2c3c(ccc12)OCN(C)C3 ?
OUT: middle class

IN: For COC1C(O)CC(OC2CC(OC3CC(O[C@@H]4C(=O)c5c(cc6cc(OC7CC(OC8CC(O)C(O)C(C)O8)C(O)C(C)O7)c(C)c(O)c6c5O)CC4[C@H](OC)C(=O)C(C)=O)OC(C)C3O)OC(C)C2O)OC1C (stereo not given in full) then?
OUT: low class

IN: Same question for COc1ccc2c(O)c(/C=C3\N=Nc4ncccc43)oc2c1C[C@@H]1CCNC[C@H]1F please.
OUT: low class

IN: Again, but for CN1c2ccccc2S(=O)(=O)n2c(SCC(=O)Nc3nc4ccc(F)cc4s3)nnc21
OUT: high class

IN: // query: Cc1c2ncccc2nc2[nH]c3ccc(OCCN(C)C)cc3c12
OUT: middle class

IN: Now this one: CN(C)/C(N)=N/N=C(\c1ccccc1)c1ccccn1
OUT: high class

IN: Repeat for the following compound: N#C/C(=C\c1ccc(-c2cccc(Cl)c2)o1)C(=O)Nc1ncc(Cc2ccc(Cl)cc2)s1
OUT: middle class

IN: Follow-up entry: CNC(=O)c1cc(Oc2ccc3c(c2)sc2nc(-c4ccc(Cl)c(C(F)(F)F)c4)cn23)ccn1
OUT: low class

IN: How about Fc1ccc2[nH]cc(-c3nc(-c4c[nH]c5c(Cl)nccc45)cs3)c2c1 ?
OUT: middle class

IN: What would you report for c1cc(OCCN2CCCCCC2)ccc1CNc1ccc2nc(CCC3CCCCC3)[nH]c2c1 ?
OUT: middle class

IN: Param item: CCN(CC)C(=O)CC1=C(C)/C(=C/c2[nH]c(-c3ccc[nH]3)cc2OC)N=C1C
OUT: low class

IN: Can you handle CCOC(=O)C(CCN(C)C)c1ccccc1 (stereo not given) next?
OUT: high class

---

# Test system: OVCAR-4 ovarian
# ASSAY_INFO: NCI-60 one-dose screen, 48 h
# MEASUREMENT_CONTEXT: 10 µM unless noted
About 83,000 compounds went through this panel and 20% of them were active in at least one assay; those are over-represented in the sample as a whole. Active and inactive are the calls of the source. How the source made its calls: active means growth percent below 10; inactive means the rest.
Field 'call' accepts active, inactive

IN: Test call for this compound, please: COc1cc(N2C(=O)[C@H](Cl)C2c2ccc(SC)cc2)cc(OC)c1OC (stereo not given in full)
OUT: inactive

IN: Then this compound: COc1ccc2cc(-c3nc4ccc(C)cn4c3NCc3ccco3)c(=O)[nH]c2c1
OUT: inactive

---

# Tested on: OVCAR-8 ovarian
# ASSAY_INFO: NCI-60 one-dose screen, 48 h (100 = growth as untreated, 0 = no growth, -100 = all killed)
# MEASUREMENT_CONTEXT: 10 µM unless noted
The panel holds about 83,000 compounds, 20% with a hit somewhere; the sample as a whole holds those more often.
As shown below, each of these compounds has a reported growth value.
Report as a plain number; the unit % is understood.

// known answers, use as guide
CC1SC(c2ccccc2O)N(NC(=O)CCC(=O)c2nc3ncccc3[nH]2)C1=O (stereo not given) = 97
C=CCN=c1sc(-c2ccc3ccccc3c2)cn1NC(=O)c1cc2ccc1CCc1ccc(cc1)CC2 = 65.5
C/C=C1/CN(CCCCC)CC[C@H]1C(=O)c1cc2ccccc2[nH]1 = 91.7

IN: Give the measured growth of O=[N+]([O-])c1ccccc1Nc1ccc2ccccc2c1 .
OUT: 88.6

IN: Cool, now Clc1ccc(-c2nc(C(Cl)Cl)nc3cc(-c4ccccc4)nn23)cc1
OUT: 29.8

IN: Please give the result for COc1ccc(-c2cc(C(=O)N3N=C(c4ccc(N)cc4)CC3c3ccc(Cl)cc3)c3ccccc3n2)cc1 (stereo not given) too.
OUT: 14.2

IN: How about COc1cc(O)c2c(=O)c3c(CC=C(C)C)cc(OC)c(O)c3oc2c1 ?
OUT: 26.4

IN: Queued: COc1ccc(OC)c(Nc2nnc(-c3cc(OC)c(OC)c(OC)c3)o2)c1
OUT: 104

IN: How about CCN(CC)CCOc1ccc2c(-c3ccccc3)c(-c3ccc(OC)cc3)c(=O)oc2c1 ?
OUT: 72.6

IN: Do the same for COc1ccc(NC(=O)c2ccc(Nc3ncnc4c3cnn4-c3cccc(F)c3)cc2)cc1 please
OUT: 99.2

---

# Tested on: RXF 393 renal
# ASSAY_INFO: NCI-60 one-dose screen, 48 h
# MEASUREMENT_CONTEXT: 10 µM unless noted
This is part of a sample that, as a whole, favours compounds with a hit. Of some 83,000 tested, about 20% had one in any assay. Active and inactive are the calls of the source. How the source made its calls: active means growth percent below 10; inactive means the rest.
Outcomes you can answer with include only these: 1 (yes) for active, 0 (no) for inactive

Observe how each entry below is paired with its result.
COc1ccc(-c2cn(Cc3cc4ccccc4s3)nn2)cc1OCCN1CCCCC1 = 0 (no)
C=C(C)[C@@H]1CC[C@]2(C(=O)N3CCN(C)CC3)CC[C@]3(C)[C@H](CC[C@@H]4[C@@](C)(CCC(=O)O)[C@H](C(=C)C)CC[C@]43C)[C@@H]12 = 0 (no)
O=S(=O)(Nc1ccc2ccccc2c1)c1ccc(-c2cnc(C3CC3)o2)cc1 = 1 (yes)

IN: Assay outcome for CC(C)(C)c1ccc(S(=O)(=O)Oc2ccc(-c3sc4cc(OS(=O)(=O)c5ccc(C(C)(C)C)cc5)ccc4c3C(=O)c3ccc(OCCN4CCCCC4)cc3)cc2)cc1 : what was it?
OUT: 0 (no)

IN: For COC(=O)[C@@]12CC=C(C)[C@]3(C[C@H](c4ccoc4)OC3=O)[C@H]1C=C[C@@H](O)[C@@]2(O)C(=O)OC then?
OUT: 0 (no)

IN: Request: Cc1cc(Cl)nc(N2CCN(CCNc3ccnc4cc(Cl)ccc34)CC2)n1
OUT: 0 (no)

IN: Thanks! And Cc1cc(=O)n(C(=S)Nc2ccc(Cl)cc2)c2cc(O)ccc12 ?
OUT: 0 (no)

IN: Moving on to the next molecule: CNC(=O)c1cc(Oc2ccc3c(c2)sc2nc(-c4ccc(Cl)c(C(F)(F)F)c4)cn23)ccn1
OUT: 0 (no)

---

# System: CAKI-1 renal
# ASSAY_INFO: NCI-60 one-dose screen, 48 h (100 = growth as untreated, 0 = no growth, -100 = all killed)
# MEASUREMENT_CONTEXT: 10 µM unless noted
The panel holds about 83,000 compounds, 20% with a hit somewhere; the sample as a whole holds those more often.
Below is a list of entries, each paired with its recorded growth value.
Supply the numeric figure in %, leaving out any unit text.

IN: State its growth on CAKI-1 renal: CN(C)CCC(=O)C1CC1
OUT: 102

IN: Another compound: COc1ccc(N/N=C/c2cn(-c3ccc(C(=O)O)cc3)nc2-c2cc3ccccc3oc2=O)cc1
OUT: 60.8

IN: And N#Cc1ccccc1-c1ccc(CN2C(=O)S/C(=C\c3ccc(Br)cc3)C2=O)cc1 ?
OUT: 85.4

IN: Next record, please: Cc1nc([P+](c2ccccc2)(c2ccccc2)c2ccccc2)c(N2CCCCC2)o1
OUT: 78

IN: Next up: O=C(/C=C/c1ccco1)Nc1ncc(Cc2cc(Cl)ccc2Cl)s1
OUT: 36.5

---

# System: M14 melanoma
# ASSAY_INFO: NCI-60 one-dose screen, 48 h
# MEASUREMENT_CONTEXT: 10 µM unless noted
# Description: Growth inhibition of the M14 human tumor cell line is measured as a screen for anti-cancer activity. Cells are grown in 96 well plates and exposed to the test compound for 48 hours. Compounds are tested at a single concentration, which is 10^-5 M for most compounds. The reported endpoint is percent growth (GI% or GIPRCNT), where numbers from 0 - 100% represent growth inhibition, and numbers from -100% - 0 represent cell death. For example, a value of 40 represents 60% growth inhibition. […]
Compounds without any hit were thinned out: in the full panel of roughly 83,000, 20% have a hit. Activity calls are given as the source filed them. The calls were made as follows: active = growth percent below 10; inactive = the rest.
Bench note: report the call from true (1) = active, false (0) = inactive

O=C(/C=C/c1ccccc1)c1cccc2ccccc12 = false (0)
ClCCn1cnc2c(SCc3ccccc3)ncnc21 = false (0)

IN: # outcome recorded in this test, key = O=CN1N=C(c2cccc(Nc3ccnc4cc(Cl)ccc34)c2)CC1c1ccc(Cl)cc1 (stereo not given)
OUT: false (0)

IN: // same read-out, input: CCN(CC)CCCC(Cc1ccccc1)Nc1c2ccc(Cl)cc2nc2ccc(OC)cc12 (stereo not given)
OUT: true (1)

IN: Another compound to look at: COc1ccc(-c2cc(-c3cc(OC)ccc3OC)nc(SCC(C)=O)c2C#N)cc1
OUT: false (0)
